Test system: Caco-2
EXPERIMENTAL_CONTEXT: human, Caco-2, 2 h
Please note: logPapp exactly at -6 is 0 (no). Only values below -6 get 1 (yes).

[[record]]
compound = "CC(C)(C)NC[C@H](O)COc1nsnc1N1CCOCC1 [TIMOLOL]"
label = "0 (no)"


We now examine a further compound.
Lab log: compare recorded logPapp with -6; is it strictly lower for O=C(O)c1cc(/N=N/c2ccc(S(=O)(=O)Nc3ccccn3)cc2)ccc1O [SULFASALAZINE] ?
1 (yes)

###

Tested on: Caco-2;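 further: apparent permeability through Caco-2 cell membranes, with the permeated amount quantified by LC-MS/MS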
EXPERIMENTAL_CONTEXT: human, Caco-2, 2 h
RESULT_TYPE: logPapp
Please reply with the number alone, leaving off any unit.

Worked cases, logPapp given:
[[record]]
compound = "CC1(C)S[C@@H]2[C@H](NC(=O)Cc3ccccc3)C(=O)N2[C@H]1C(=O)O"
numeric_value = -6.11

[[record]]
compound = "CC#Cc1cn([C@@H]2O[C@H](CO)[C@@H](O)[C@@H]2O)c(=O)[nH]c1=O"
numeric_value = -6.17


Notebook entry, Caco-2 assay: logPapp of CNC[C@H](O)c1ccc(O)c(O)c1 [EPINEPHRINE] = ?
-6.02
